Listing of entries alongside the reported ED50.
Test system: acetylcholine-induced writhing
Assay: Anti-acetylcholine writhing test (analgesia)
Assay type: in vivo, mice
Details: Mus musculus, sc, 20 min; mice, subcutaneous, 20 minutes pretreatment; read-out: ED50, anti-acetylcholine writhing test
Where a name gives a salt, the structure may show the parent alone.
Give the value, in units of mg/kg, as a plain number.

Here's what some known entries look like.
# molecule, tested_system, unit_abbrev, ED50
rows = [
    ("CCCCNc1ccc2c(c1)[C@]1(C)CCN(CC3CC3)[C@H](C2)[C@@H]1C (relative stereo) [Example 11B]", "acetylcholine-induced writhing", "mg/kg", 1),
    ("CCCN1CC[C@@]2(C)c3cc(N)ccc3C[C@@H]1[C@@H]2C (relative stereo) [Example 6C, dihydrochloride sesquihydrate]", "acetylcholine-induced writhing", "mg/kg", 5.6),
    ("C[C@H]1[C@H]2Cc3ccc(O)cc3[C@]1(C)CCN2CC1CC1 (relative stereo) [cyclazocine, reference compound]", "acetylcholine-induced writhing", "mg/kg", 0.15),
    ("C=CCN1CC[C@@]2(C)c3cc(N)ccc3C[C@@H]1[C@@H]2C (relative stereo) [Example 8C, dihydrochloride]", "acetylcholine-induced writhing", "mg/kg", 2.5),
    ("CC(C)=CCN1CCC2(C)c3cc(O)ccc3CC1C2C (stereo not drawn) [pentazocine, reference compound]", "acetylcholine-induced writhing", "mg/kg", 2.2),
]

Incoming: Find the recorded ED50 belonging to CC(C)CN1CC[C@@]2(C)c3cc(N)ccc3C[C@@H]1[C@@H]2C (relative stereo) [Example 5C, dihydrochloride] and report it.
Outgoing: 1.5

Incoming: Find the recorded ED50 belonging to C[C@H]1[C@H]2Cc3ccc(NCC4CC4)cc3[C@]1(C)CCN2CC1CC1 (relative stereo) [Example 2E, hydrochloride] and report it.
Outgoing: 0.7

* * *

Listing of entries alongside the reported ED50.
System: acetylcholine-induced writhing
Test: Anti-acetylcholine writhing test (analgesia)
Format: in vivo, mice
Settings: Mus musculus, sc, 20 min; mice, subcutaneous, 20 minutes pretreatment; read-out: ED50, anti-acetylcholine writhing test
Where a name gives a salt, the structure may show the parent alone.
Give the value, in units of mg/kg, as a plain number.

# compound, assay_endpoint, recorded_value
data = [
    ("C[C@H]1[C@H]2Cc3ccc(N(C)C)cc3[C@]1(C)CCN2CC1CC1 (relative stereo) [Example 4F, dihydrochloride]", "ED50", 0.79),
]

Incoming: Find the recorded ED50 belonging to C[C@H]1[C@H]2Cc3ccc(N)cc3[C@]1(C)CCN2C (relative stereo) [Formula G, reference compound] and report it.
Outgoing: 7.5

Incoming: Find the recorded ED50 belonging to CC[C@H]1[C@H]2Cc3ccc(N)cc3[C@]1(CC)CCN2CC1CC1 (relative stereo) [Example 12H, dihydrochloride] and report it.
Outgoing: 1.3

* * *

Listing of entries alongside the reported ED50.
Tested on: acetylcholine-induced writhing
Test: Anti-acetylcholine writhing test (analgesia)
Type: in vivo, mice
Details: Mus musculus, sc, 20 min; mice, subcutaneous, 20 minutes pretreatment; read-out: ED50, anti-acetylcholine writhing test
Structures can show the parent of a compound that is named as a salt.
Give the value, in units of mg/kg, as a plain number.

Here's what some known entries look like.
# compound, unit_abbrev, ED50
data = [
    ("C[C@H]1[C@H]2Cc3ccc(NCc4ccccc4)cc3[C@]1(C)CCN2CC1CC1 (relative stereo) [Example 7, dihydrochloride]", "mg/kg", 1.6),
    ("CCCNc1ccc2c(c1)[C@]1(C)CCN(CC3CC3)[C@H](C2)[C@@H]1C (relative stereo) [Example 10B]", "mg/kg", 1.2),
    ("CNc1ccc2c(c1)[C@]1(C)CCN(CC3CC3)[C@H](C2)[C@@H]1C (relative stereo) [Example 3B, hydrate]", "mg/kg", 0.44),
    ("CCNc1ccc2c(c1)[C@]1(C)CCN(CC3CC3)[C@H](C2)[C@@H]1C (relative stereo)", "mg/kg", 1.3),
]

Incoming: Find the recorded ED50 belonging to C[C@H]1[C@H]2Cc3ccc(N)cc3[C@]1(C)CCN2CC1CC1 (relative stereo) [Example 1B, dihydrochloride] and report it.
Outgoing: 0.8
